- Test system: M. tuberculosis H37Rv growth inhibition with meropenem
- protocolDetails: dose response, H37Rv, with and without meropenem (AID 434987);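 note: growth over 7 days at 37 °C before Alamar Blue read on day 9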
- studyConditions: measured here: IC90 with meropenem
Here the recorded IC90 is given for each entry.

>  <compound>
Cc1ccsc1C(=O)NNC(=O)c1csc(N2CCOCC2)n1

>  <IC90>
> 100 µM

$$$$
>  <compound>
O=C(Nc1ccc2nc3n(c(=O)c2c1)CCCC3)c1cc([N+](=O)[O-])ccc1F

>  <IC90>
91 µM

$$$$
>  <compound>
CCCn1nc2cc(C(=O)NCCCCc3ccccc3)ccc2c1OCC

>  <IC90>
> 100 µM

$$$$
>  <compound>
S=c1nccc(-c2ccc3c(c2)CCO3)[nH]1

>  <IC90>
> 100 µM

$$$$
>  <compound>
CN(C)S(=O)(=O)n1cc(/C=C(\NC(=O)c2ccccc2)C(=O)NCCN2CCOCC2)c2ccccc21

>  <IC90>
> 100 µM

$$$$
>  <compound>
Cc1ccc(-n2ncc3c(=O)n(CC#N)cnc32)cc1C

>  <IC90>
> 100 µM

$$$$
>  <compound>
c1ccc2c(c1)CC1CNCc3cccc(c31)S2 (stereo not given)

>  <IC90>
> 100 µM

$$$$
>  <compound>
NNC(=O)c1oc2nc(-c3ccco3)cc(-c3ccco3)c2c1N

>  <IC90>
> 100 µM

$$$$
>  <compound>
Cc1nn(-c2ccccc2)c(Cl)c1CN(C(=O)CCl)c1cccc2ccccc12

>  <IC90>
48.2 µM

$$$$
>  <compound>
COc1ccc(NC(=O)C/C(C)=N/NC(=O)c2cnccn2)cc1

>  <IC90>
> 100 µM

$$$$
>  <compound>
C/C(=N\NC(=O)c1cccc(Cl)c1)c1cccc(NC(=O)C(C)C)c1

>  <IC90>
> 100 µM

$$$$
>  <compound>
Cc1ccc(-n2c(SCC(=O)OC(C)C)nnc2-c2ccco2)cc1

>  <IC90>
> 100 µM

$$$$
>  <compound>
CCN(CC)C(=O)C1CCCN(c2ccc([N+](=O)[O-])cc2/C=N/NC(=O)c2cccc(O)c2)C1 (stereo not given)

>  <IC90>
55.3 µM

$$$$
>  <compound>
CCOC(=O)c1nn(-c2ccc(Cl)cc2)cc1O

>  <IC90>
> 100 µM

$$$$
>  <compound>
Cc1cc(C)c2sc(N(CCCN(C)C)C(=O)COc3ccc(Cl)cc3)nc2c1

>  <IC90>
> 100 µM

$$$$
>  <compound>
CCCCN=C1CC(C)(C)CC(=O)/C1=C(/O)CCC

>  <IC90>
28.7 µM

$$$$
>  <compound>
COc1cc(C(=S)N2CCOCC2)ccc1OC(=O)c1ccc([N+](=O)[O-])cc1[N+](=O)[O-]

>  <IC90>
5.92 µM

$$$$
>  <compound>
CCCOc1ccc(C(=O)N/N=C/c2ccc(-c3ccc(S(=O)(=O)Nc4ncccn4)cc3)o2)cc1

>  <IC90>
26.1 µM

$$$$
>  <compound>
Cc1ccc(CN2C(=O)N/C(=C\c3ccc(-c4ccc(C(=O)O)cc4C)o3)C2=O)cc1

>  <IC90>
14.7 µM

$$$$
>  <compound>
CC1(C)C2CC=C(/C=N/NC(=O)c3ccccc3O)C1C2 (stereo not given)

>  <IC90>
> 100 µM

$$$$
>  <compound>
CC1CCN(CCOc2ccc(OCc3ccccc3)cc2)CC1

>  <IC90>
> 100 µM

$$$$
>  <compound>
CCCCNC(=O)c1onc(CSc2ccc(F)c(F)c2)c1C(=O)O

>  <IC90>
56.8 µM

$$$$
>  <compound>
Cc1ccccc1/C=N\NC(=O)c1csnn1

>  <IC90>
> 100 µM

$$$$
>  <compound>
CN(NC(=O)c1c(Cl)cccc1Cl)c1cccc(Cl)n1

>  <IC90>
> 100 µM

$$$$
>  <compound>
COc1ccc(C2CC(c3c(-c4ccccc4)c4cc(Cl)ccc4[nH]c3=O)=NN2S(C)(=O)=O)cc1 (stereo not given)

>  <IC90>
> 100 µM

$$$$
>  <compound>
O=C(O)CSc1ncnc2c1sc1nc(-c3ccccc3)c3c(c12)CCC3

>  <IC90>
14.2 µM

$$$$
>  <compound>
CNC(=S)N/N=C(\C)c1ccc(Cl)c(Cl)c1

>  <IC90>
> 100 µM

$$$$
>  <compound>
CC[C@@](C)(NS(=O)(=O)OCC(Cl)(Cl)Cl)c1ccccc1

>  <IC90>
54.8 µM

$$$$
>  <compound>
COc1ccc2sc(-c3ccc(N(C)C)cc3)c(C#CC(C)(C)O)c2c1

>  <IC90>
> 100 µM

$$$$
>  <compound>
c1ccc2nc(-c3nc4ccccc4o3)ccc2c1

>  <IC90>
> 50 µM

$$$$
>  <compound>
CCCOc1ccc(C(=O)CCN2CCCCC2)cc1

>  <IC90>
36.4 µM

$$$$
>  <compound>
N#Cc1ccccc1/C=N/Nc1nc(-c2ccccc2)c2cc(Br)ccc2n1

>  <IC90>
> 100 µM

$$$$
>  <compound>
CCOC(=O)c1c(NC(=O)COC(=O)c2ncc(Cl)c(Cl)c2Cl)sc(C(=O)N(C)C)c1C

>  <IC90>
27.7 µM

$$$$
>  <compound>
CN(C)CC(=O)Nc1nc(-c2ccccc2)cs1

>  <IC90>
> 100 µM

$$$$
>  <compound>
O=c1c2c(nc3n1CCCCC3)sc1c(O)c(Br)ccc12

>  <IC90>
> 50 µM

$$$$
>  <compound>
O=C1O/C(=C/c2ccccc2)N=C1c1ccccc1

>  <IC90>
28.3 µM

$$$$
>  <compound>
CCOc1cc(CNCCN(C)C)c(Cl)cc1OCC(=O)NCCc1ccccc1

>  <IC90>
> 100 µM

$$$$
>  <compound>
NCCS

>  <IC90>
> 100 µM

$$$$
>  <compound>
CCOCC(=O)Nc1ccc(F)c(F)c1

>  <IC90>
> 100 µM

$$$$
>  <compound>
Cc1ccc(S(=O)(=O)NCCCCCC(=O)Nc2nccs2)cc1

>  <IC90>
> 100 µM

$$$$
>  <compound>
S=C(Nc1ccccc1)Nc1ccc(Cl)cn1

>  <IC90>
> 100 µM

$$$$
>  <compound>
CCc1ccc(N2C(=O)c3sc4nnc(-c5ccccc5)c(=O)n4c3C2=O)cc1

>  <IC90>
> 100 µM

$$$$
>  <compound>
CC(=O)NC(=S)Nc1ccc(NC(=O)c2cccs2)cc1

>  <IC90>
> 100 µM

$$$$
>  <compound>
CC(C)N1CCc2c(sc(NC(=O)c3cc(-c4cccs4)nc4ccccc34)c2C(N)=O)C1

>  <IC90>
> 100 µM

$$$$
>  <compound>
O=C(COc1ccccc1[N+](=O)[O-])N(Cc1cccc(Br)c1)C1CCS(=O)(=O)C1 (stereo not given)

>  <IC90>
> 100 µM

$$$$
